Parameter: IC50. Scope: all listed entries.
target: Human recombinant FAP (Homo sapiens); assay: FRET-based FAP protease activity assay (human); type: biochemical; design: purchased R&D systems 3715-SE; settings: FRET-peptide substrate, 37°C, read-out: pIC50 (Activity) (converted)
Sequence (Q12884 whole entry): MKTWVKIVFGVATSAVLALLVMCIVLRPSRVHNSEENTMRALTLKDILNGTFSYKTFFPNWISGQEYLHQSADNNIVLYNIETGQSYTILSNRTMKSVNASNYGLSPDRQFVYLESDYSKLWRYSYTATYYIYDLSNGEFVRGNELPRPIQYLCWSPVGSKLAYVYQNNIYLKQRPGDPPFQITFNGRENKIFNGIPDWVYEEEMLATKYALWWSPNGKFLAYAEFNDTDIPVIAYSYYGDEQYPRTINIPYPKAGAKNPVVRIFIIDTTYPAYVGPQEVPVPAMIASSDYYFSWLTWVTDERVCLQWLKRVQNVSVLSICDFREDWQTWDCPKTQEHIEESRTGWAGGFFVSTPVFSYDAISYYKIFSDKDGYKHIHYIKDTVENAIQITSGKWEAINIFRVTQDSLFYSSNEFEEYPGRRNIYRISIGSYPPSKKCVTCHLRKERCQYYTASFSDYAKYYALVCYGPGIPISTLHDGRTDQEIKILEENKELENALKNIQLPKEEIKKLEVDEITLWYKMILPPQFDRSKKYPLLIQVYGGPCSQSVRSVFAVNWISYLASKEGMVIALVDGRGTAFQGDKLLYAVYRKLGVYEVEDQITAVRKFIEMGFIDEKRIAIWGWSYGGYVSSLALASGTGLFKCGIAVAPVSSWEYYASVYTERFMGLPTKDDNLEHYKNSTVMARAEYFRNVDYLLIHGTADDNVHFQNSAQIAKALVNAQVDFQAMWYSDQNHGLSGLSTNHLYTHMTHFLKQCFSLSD
MEASURED_ENDPOINT: IC50

>  <MOLECULE>
COc1cccc2c(C(=O)NCC(=O)N3CC(F)(F)C[C@H]3C#N)ccnc12

>  <ASSAYED_SYSTEM>
Human recombinant FAP (Homo sapiens)

>  <MEASURED_ENDPOINT>
IC50

>  <OBSERVED_VALUE>
6.31 nM

$$$$
>  <MOLECULE>
Cc1nc(C(=O)[C@@H]2CCCN2C(=O)CNC(=O)c2ccnc3ccccc23)no1

>  <ASSAYED_SYSTEM>
Human recombinant FAP (Homo sapiens)

>  <MEASURED_ENDPOINT>
IC50

>  <OBSERVED_VALUE>
79.4 nM

$$$$
>  <MOLECULE>
O=C(NCC(=O)N1CCC[C@H]1C(=O)c1nc2ccccc2s1)c1ccnc2ccccc12

>  <ASSAYED_SYSTEM>
Human recombinant FAP (Homo sapiens)

>  <MEASURED_ENDPOINT>
IC50

>  <OBSERVED_VALUE>
39.8 nM

$$$$
>  <MOLECULE>
CS(=O)(=O)c1cccc(-c2ccc3c(C(=O)NCC(=O)N4CC(F)(F)C[C@H]4C#N)ccnc3c2)c1 [drawing 289]

>  <ASSAYED_SYSTEM>
Human recombinant FAP (Homo sapiens)

>  <MEASURED_ENDPOINT>
IC50

>  <OBSERVED_VALUE>
0.794 nM

$$$$
>  <MOLECULE>
O=C(NCC(=O)N1CCC[C@H]1C(=O)c1nccs1)c1ccnc2ccccc12

>  <ASSAYED_SYSTEM>
Human recombinant FAP (Homo sapiens)

>  <MEASURED_ENDPOINT>
IC50

>  <OBSERVED_VALUE>
50.1 nM

$$$$
>  <MOLECULE>
N#C[C@@H]1CCCN1C(=O)CNC(=O)c1ccnc2ccc(-c3ccc(C(=O)O)cc3)cc12

>  <ASSAYED_SYSTEM>
Human recombinant FAP (Homo sapiens)

>  <MEASURED_ENDPOINT>
IC50

>  <OBSERVED_VALUE>
1.58 nM

$$$$
>  <MOLECULE>
CS(=O)(=O)c1ccc(-c2ccc3nccc(C(=O)NCC(=O)N4C[C@H](F)C[C@H]4C#N)c3c2)cc1

>  <ASSAYED_SYSTEM>
Human recombinant FAP (Homo sapiens)

>  <MEASURED_ENDPOINT>
IC50

>  <OBSERVED_VALUE>
3.16 nM

$$$$
>  <MOLECULE>
CS(=O)(=O)c1ccc(-c2ccc3nccc(C(=O)NCC(=O)N4CCC[C@H]4C#N)c3c2)cc1

>  <ASSAYED_SYSTEM>
Human recombinant FAP (Homo sapiens)

>  <MEASURED_ENDPOINT>
IC50

>  <OBSERVED_VALUE>
0.631 nM

$$$$
>  <MOLECULE>
CS(=O)(=O)c1cccc(-c2ccc3nccc(C(=O)NCC(=O)N4CCC[C@H]4C#N)c3c2)c1

>  <ASSAYED_SYSTEM>
Human recombinant FAP (Homo sapiens)

>  <MEASURED_ENDPOINT>
IC50

>  <OBSERVED_VALUE>
1 nM

$$$$
>  <MOLECULE>
CC(C)(C)c1nnc(C(=O)[C@@H]2CCCN2C(=O)CNC(=O)c2ccnc3ccccc23)o1

>  <ASSAYED_SYSTEM>
Human recombinant FAP (Homo sapiens)

>  <MEASURED_ENDPOINT>
IC50

>  <OBSERVED_VALUE>
3.98 nM

$$$$
>  <MOLECULE>
CC(C)(C)OC(=O)N1CCN(CCCOc2ccc3nccc(C(=O)NCC(=O)N4CC(F)(F)C[C@H]4C#N)c3c2)CC1

>  <ASSAYED_SYSTEM>
Human recombinant FAP (Homo sapiens)

>  <MEASURED_ENDPOINT>
IC50

>  <OBSERVED_VALUE>
1.58 nM

$$$$
>  <MOLECULE>
Cc1cccc2c(C(=O)NCC(=O)N3CC(F)(F)C[C@H]3C#N)ccnc12

>  <ASSAYED_SYSTEM>
Human recombinant FAP (Homo sapiens)

>  <MEASURED_ENDPOINT>
IC50

>  <OBSERVED_VALUE>
12.6 nM

$$$$
